Tested on: Calu-3
test details: drug sensitivity score (DSS) for viability; higher = more toxic; extreme values may be limits of the assay
condition parameters: 72 h
observation type: drug sensitivity score
Give the figure by itself; no unit, no explanation.

Before answering, review these 3 worked examples.
molecule	drug sensitivity score
C=CCN1CC[C@]23c4c5ccc(O)c4O[C@H]2/C(=N/NC(=O)c2ccccc2)CC[C@@]3(O)[C@H]1C5 [naloxone-benzoylhydrazone]	0
CC(C)Cc1ccc(C(C)C(=O)NO)cc1 (centres undefined)	0
Fc1ccc([C@@H]2CCNC[C@H]2COc2ccc3c(c2)OCO3)cc1	0

Q: Report drug sensitivity score, nothing else, for this molecule: CN1CCN(CC(=O)N2c3ccccc3C(=O)Nc3cccnc32)CC1 [pirenzepine]
A: 0

Q: Report drug sensitivity score, nothing else, for this molecule: CCCCNc1c(C(=O)OCC)c(C)nc2c1cnn2CC [tracazolate]
A: 0.1

Q: Report drug sensitivity score, nothing else, for this molecule: `CNC(=O)c1c(I)c(C(=O)NCC(=O)Nc2c(I)c(C(=O)O)c(I)c(C(=O)NCCO)c2I)c(I)c(N(C)C(C)=O)c1I`
A: 0

Q: Report drug sensitivity score, nothing else, for this molecule: CN(Cc1cnc2nc(N)nc(N)c2n1)c1ccc(C(=O)N[C@@H](CCC(=O)O)C(=O)O)cc1 [methotrexate]
A: 0

Q: Report drug sensitivity score, nothing else, for this molecule: `Clc1cccc(N2CCNCC2)c1`
A: 0

Q: Report drug sensitivity score, nothing else, for this molecule: NC(=O)c1cn(Cc2c(F)cccc2F)nn1 [rufinamide]
A: 0

---

System: HepG2
test details: drug sensitivity score (DSS) for viability; higher = more toxic; extreme values may be limits of the assay
condition parameters: 72 h
observation type: drug sensitivity score
Give the figure by itself; no unit, no explanation.

Before answering, review these 5 worked examples.
compound	drug sensitivity score
CNCCC=C1c2ccccc2CCc2ccccc21	1
CCC1NC(=O)c2cc(S(N)(=O)=O)c(Cl)cc2N1 (centres undefined)	0
Cc1csc(S(=O)(=O)N(CC(C)C)c2cc3c(cc2OCc2ccc(C(=O)O)cc2)CCC3)n1	0
CCc1nc2c(C)nc(C)cc2n1-c1ccc(CCNC(=O)NS(=O)(=O)c2ccc(C)cc2)cc1	0
NCCc1c[nH]c2ccc(C(N)=O)cc12	0

As a next step, examine the compound that follows.
Q: For HepG2, give the measured drug sensitivity score of the entry `O=C(Nc1ccc(Br)cc1)c1cc(Br)cc(Br)c1O`
A: 0.4

---

Tested on: A549-ACE2
test details: drug-induced phospholipidosis relative to tamoxifen; higher = more phospholipidosis
condition parameters: 0.3 µM; 24 h
Reported drug-induced phospholipidosis values are given for each entry in this list.
Hey, just the number and the unit after it is fine.

molecule	drug-induced phospholipidosis
O=[N+]([O-])c1ccccc1S(=O)(=O)NCC1CCC(CNC[C@H]2CCc3ccccc3C2)CC1 (some centres undefined)	2.25%
Cc1cccc(/C=N/Nc2cc(N3CCOCC3)nc(OCCc3ccccn3)n2)c1	103%
CN1CCC[C@@H](CC2c3ccccc3Sc3ccccc32)C1 (racemic)	0.41%

Q: For A549-ACE2, give the measured drug-induced phospholipidosis of the entry CN1[C@@H]2CC[C@H]1C[C@@H](OC(c1ccccc1)c1ccccc1)C2 [benztropine-mesylate]
A: 2.39%

---

System: HepG2
test details: cell viability relative to DMSO; higher = less toxic
condition parameters: 72 h; 100 nM
Reported cell viability values are given for each entry in this list.

Before answering, review these 8 worked examples.
compound	observation type	result
Cc1nc(Nc2n[nH]c3c2CN(C(=O)N[C@H](CN(C)C)c2ccccc2)C3(C)C)c2sccc2n1	cell viability	38.4%
CC1(C)Cc2c(-c3ccccc3)c(-c3ccc(Cl)cc3)c(CC(=O)O)n2C1 [licofelone]	cell viability	95.4%
Nc1cc(C(F)(F)F)c(-c2cc(N3CCOCC3)nc(N3CCOCC3)n2)cn1 [buparlisib]	cell viability	95.7%
Cc1nc(=O)c2cc(CN(C)c3ccc(C(=O)N[C@@H](CCC(=O)O)C(=O)O)s3)ccc2[nH]1 [raltitrexed]	cell viability	70.7%
COc1cc(OC)cc(-c2ccc3c(-c4ccc(F)cc4)n[nH]c3n2)c1 [APcK-110]	cell viability	101%
O=C1C[C@@H](c2ccc(O)cc2)Oc2cc(O)ccc21 [MF-101]	cell viability	103%
C[C@](N)(Cc1ccc(O)c(O)c1)C(=O)O [methyldopa]	cell viability	104%
CC#CCOC(=O)c1c(C)nc2sc3c(c2c1N)CCC(O)C3 (stereo not drawn)	cell viability	89.9%

Q: For HepG2, give the measured cell viability of the entry O=C(Nc1ccc(Cl)cc1)Nc1cccc(-c2cccc(N3CCCC3)n2)c1 [PSNCBAM-1]
A: 102%

Q: For HepG2, give the measured cell viability of the entry CN1CCC(NC(=O)c2cc(-c3c(O)cc(O)cc3Oc3ccc([N+](=O)[O-])cc3)on2)CC1 [NMS-E973]
A: 55%

Q: For HepG2, give the measured cell viability of the entry O=C(CCCCCN1C(=O)c2cccc3cccc(c23)C1=O)NO [scriptaid]
A: 93%

Q: For HepG2, give the measured cell viability of the entry CN1CCCCC1CCN1c2ccccc2Sc2ccc([S+](C)[O-])cc21 (stereo not drawn) [mesoridazine]
A: 120%

Q: For HepG2, give the measured cell viability of the entry CC(=O)[C@@]1(O)CC[C@H]2[C@@H]3C[C@H](C)C4=CC(=O)C=C[C@]4(C)[C@@]3(F)[C@@H](O)C[C@@]21C [fluorometholone]
A: 101%

Q: For HepG2, give the measured cell viability of the entry Cc1cc(=O)oc2c(C=O)c(O)ccc12 [4-mu-8C]
A: 111%

Q: For HepG2, give the measured cell viability of the entry Fc1ccc([C@@H]2CCNC[C@H]2COc2ccc3c(c2)OCO3)cc1 [paroxetine]
A: 108%

Q: For HepG2, give the measured cell viability of the entry O=C(Nc1nc2cccc(-c3ccc(CN4CCS(=O)(=O)CC4)cc3)n2n1)C1CC1 [filgotinib]
A: 96.4%

Q: For HepG2, give the measured cell viability of the entry O=C(c1ccc(Cl)cc1)N(Cc1ccccc1)C1CCCCC1 [FPS-ZM1]
A: 102%

Q: For HepG2, give the measured cell viability of the entry O=C(NO)C1(CS(=O)(=O)c2ccc(Oc3ccc(Cl)cc3)cc2)CCOCC1 [CTS-1027]
A: 104%

---

Tested on: Vero E6
test details: drug sensitivity score (DSS) for viability; higher = more toxic; extreme values may be limits of the assay
condition parameters: 72 h
Reported drug sensitivity score values are given for each entry in this list.

Before answering, review these 2 worked examples.
compound	result
C[C@@H](C1=C(CCN(C)C)Cc2ccccc21)c1ccccn1 (racemic)	0
Cn1cc(-c2ccc3c(c2)CCN3C(=O)Cc2cccc(C(F)(F)F)c2)c2c(N)ncnc21	1.2

As a next step, examine the compound that follows.
Q: Report drug sensitivity score, nothing else, for this compound: `Nc1cc(-c2ccncc2)c[nH]c1=O`
A: 0

---

Reported cell viability values are given for each entry in this list.
Tested on: Vero E6
test details: cell viability relative to DMSO; higher = less toxic
condition parameters: 72 h; 1000 nM
Form entry: value (%) — number only.

Before answering, review these 5 worked examples.
compound	measured target	observation type	units	result number
C[C@@H](C1=C(CCN(C)C)Cc2ccccc21)c1ccccn1 (racemic)	Vero E6	cell viability	%	100
C[C@H]1COc2c(C3(N)CC3)c(F)cc3c(=O)c(C(=O)O)cn1c23	Vero E6	cell viability	%	94.6
CCCCC(=O)NCCc1c(Cc2ccccc2)[nH]c2ccccc12	Vero E6	cell viability	%	97
O=C1C[C@@H](c2ccc(O)cc2)Oc2cc(O)ccc21	Vero E6	cell viability	%	92.1
Nc1cccc2c1C(=O)N(C1CCC(=O)NC1=O)C2=O (centres undefined) [pomalidomide]	Vero E6	cell viability	%	99.4

Q: Report cell viability, nothing else, for this compound: `Cc1cc(/C=C2\SC(=O)N(c3ccccc3)C2=O)c(C)n1-c1cccnc1`
A: 99.8

Q: Report cell viability, nothing else, for this compound: `C[C@@H](Nc1cc(F)cc(F)c1)c1cc(C(=O)N(C)C)cc2c(=O)cc(N3CCOCC3)oc12`
A: 78.9

Q: Report cell viability, nothing else, for this compound: `Cc1cc2ncc(C(=O)NCC(C)(C)NCC(=O)N3CCC[C@H]3C#N)cn2n1`
A: 98.8

Q: Report cell viability, nothing else, for this compound: CN1[C@@H]2CC[C@H]1C[C@@H](OC(c1ccccc1)c1ccccc1)C2 [benztropine-mesylate]
A: 97.5

Q: Report cell viability, nothing else, for this compound: `O=C(NO)C1(CS(=O)(=O)c2ccc(Oc3ccc(Cl)cc3)cc2)CCOCC1`
A: 95

Q: Report cell viability, nothing else, for this compound: `Nc1nonc1/C(=N/O)Nc1ccc(F)c(Cl)c1`
A: 98.8

Q: Report cell viability, nothing else, for this compound: `O=C1Cc2c([nH]c3ccc(Br)cc23)-c2ccccc2N1`
A: 101

Q: Report cell viability, nothing else, for this compound: `CCCN(CCC)C1Cc2cc(OC)c(OC)cc2C1`
A: 102
